Test: in vivo
Conditions: male, CD-1, mouse, iv, 1 mg/kg
attribute measured: AUC(0-inf) (ng·h/mL)

[[record]]
compound = "CC12CC3CC(C(=O)N[C@H]4CC[C@@H](N)CC4)(C1)CC(c1ccccc1)(C3)C2.Cl (mixture of isomers)"
experimental_value = 561


---

Experiment: physchem
Conditions: pH 7, kinetic from dmso stock
Listed below: solubility values for each entry.
attribute measured: solubility

[[record]]
compound = "C[C@]12CC3CC(C(=O)N[C@H]4CC[C@@H](N)CC4)(C1)C[C@@](c1ccccc1)(C3)C2.Cl"
experimental_value = "> 500 µM"

[[record]]
compound = "CC12CC3CC(C(=O)N[C@H]4CC[C@@H](N)CC4)(C1)CC(c1ccccc1)(C3)C2.Cl (mixture of isomers)"
experimental_value = "> 500 µM"


---

Test: in vivo
Conditions: male, CD-1, mouse, iv, 1 mg/kg
attribute measured: half-life (h)

[[record]]
compound = "CC12CC3CC(C(=O)N[C@H]4CC[C@@H](N)CC4)(C1)CC(c1ccccc1)(C3)C2.Cl (mixture of isomers)"
units = "h"
experimental_value = 5.4


---

System: MARV (full-length glycoprotein, VSV pseudotype)
Assay: microbe, parasite or virus in culture
Assay type: cell-based, Marburg marburgvirus
Conditions: Vesicular stomatitis virus, Vero, 24 h, read-out: EC50 Pseudotype Assays MARV
Field 'label' (enum: Fulfilled / Not fulfilled). Set to Fulfilled when EC50 is strictly under 3000 nM; else Not fulfilled.

[[record]]
molecule = "C[C@]12CC3CC(C(=O)N[C@@H]4CCNC[C@H]4F)(C1)C[C@@](c1ccccc1)(C3)C2 [Example B5]"
assigned_category = "Not fulfilled"

[[record]]
molecule = "C[C@@]12CC3CC(C(=O)N[C@H]4CC[C@@H](N)CC4)(C1)C[C@](c1ccccc1)(C3)C2 [Example C2]"
assigned_category = "Not fulfilled"

[[record]]
molecule = "C[C@]12CC3CC(C(=O)N[C@H]4CC[C@H](CN)CC4)(C1)C[C@@](c1ccccc1)(C3)C2 [Example B3]"
assigned_category = "Not fulfilled"

[[record]]
molecule = "CCC12CC3CC(CN[C@H]4CC[C@H](N)CC4)(C1)CC(c1ccccc1)(C3)C2 (stereo partly shown) [Example A66]"
assigned_category = "Fulfilled"

[[record]]
molecule = "CC12CC3CC(C(=O)NC4CCNCC4)(C1)CC(c1ccccc1)(C3)C2 (racemic) [Example A1]"
assigned_category = "Fulfilled"

[[record]]
molecule = "CCC12CC3CC(C(=O)N[C@@H]4CCNC[C@H]4F)(C1)CC(c1ccccc1)(C3)C2 (mixture of isomers) [Example A17]"
assigned_category = "Not fulfilled"


---

Test system: Ebola Zaire
attribute measured: Ebola Zaire SI (CC50/EC90)

[[record]]
molecule = "C[C@@]12CC3CC(C(=O)NC4CCNCC4)(CC(c4ccccc4)(C3)C1)C2 [Example B1]"
attribute_measured = "Ebola Zaire SI (CC50/EC90)"
experimental_value = ">48"

[[record]]
molecule = "C[C@]12CC3CC(C(=O)N[C@H]4CC[C@H](CN)CC4)(C1)C[C@@](c1ccccc1)(C3)C2 [Example B3]"
attribute_measured = "Ebola Zaire SI (CC50/EC90)"
experimental_value = 23

[[record]]
molecule = "C[C@]12CC3CC(C(=O)N[C@H]4CC[C@@H](N)CC4)(C1)C[C@@](c1ccccc1)(C3)C2.Cl [Example B2]"
attribute_measured = "Ebola Zaire SI (CC50/EC90)"
experimental_value = 72.5

[[record]]
molecule = "C[C@]12CC3CC(C(=O)N[C@H]4CN5CCC4CC5)(C1)C[C@@](c1ccccc1)(C3)C2 [Example B58]"
attribute_measured = "Ebola Zaire SI (CC50/EC90)"
experimental_value = 6.5

[[record]]
molecule = "C[C@H]1C[C@@H](NC(=O)C23CC4C[C@@](C)(C2)C[C@](c2ccccc2)(C4)C3)CCN1 [Example B4]"
attribute_measured = "Ebola Zaire SI (CC50/EC90)"
experimental_value = ">35"

